# measuredTarget: Liver carboxylesterase (Sus scrofa, UniProt Q29550)
# experimentalProtocol: Prodrug release assessed as pig liver esterase-mediated H2S and fluorescent coumarin release by measuring half life of drug at 500 uM by HPLC analysis
# Format: ADME
Would you kindly list t1/2 for each of these molecules?
Quick note: give the figure in h, leave out the unit.

# get_value(readout='t1/2', item= S=c1ccc2ccc3occc3c2o1 ) 66.71

Quick one: t1/2 of S=c1ccc2ccccc2o1 ? 94.44

Return reported t1/2; argument: S=c1ccc2cc3ccoc3cc2o1 62.89

Field request: t1/2 | item: Cc1cc(=S)oc2cc(O)ccc12 57.59

====

# experimentalProtocol: Prodrug release in Sprague-Dawley rat plasma assessed as increase in fluorescence intensity by measuring half life at 500 uM by fluorescence based analysis
# Type: ADME, cell-free
# note: boundary value 9 h maps to FALSE; t1/2 below it maps to TRUE

In plain terms, does Cc1cc(=S)oc2cc(N(C)C)ccc12 come in under 9 h for t1/2? FALSE

Just wondering, is t1/2 of Nc1ccc2c(C(F)(F)F)cc(=S)oc2c1 below 9 h? FALSE

Quick check: does CCN(CC)c1ccc2c(CN(C)O)cc(=S)oc2c1 have t1/2 under 9 h? TRUE

Decide: t1/2 of Cc1cc(=S)oc2cc(O)ccc12 strictly below 9 h? TRUE

Lab note: confirm whether the reported t1/2 for this compound is below 9 h, equality not counting. compound: Cc1cc(=S)oc2cc3cc(O)ccc3cc12 FALSE

Bench note: check whether S=c1ccc2cc3ccoc3cc2o1 shows t1/2 below 9 h TRUE

====

# Tested on: Mus musculus
# experimentalProtocol: Protection against cerebral infarction in C57BL/6JNifdc mouse tMCAO model assessed as decrease in infarction area in brain at 100 umol/kg, iv measured after 24 hrs by TTC staining based analysis
# Assay type: functional, organism-based
# conditionContext: dose 100.0 µmol/kg
The source made the active and inactive calls. No cut-off for these calls is given here.
attributeMeasured: Activity

sampleSmiles | attributeMeasured | reportedMeasurement
Cc1cc(=S)oc2cc(O)ccc12 | Activity | Active
S=c1ccc2cc3ccoc3cc2o1 | Activity | Active
CCN(CC)c1ccc2c(C)cc(=S)oc2c1 | Activity | Active

====

# measuredTarget: Liver carboxylesterase (Sus scrofa)
# Sequence (Q29550 whole entry): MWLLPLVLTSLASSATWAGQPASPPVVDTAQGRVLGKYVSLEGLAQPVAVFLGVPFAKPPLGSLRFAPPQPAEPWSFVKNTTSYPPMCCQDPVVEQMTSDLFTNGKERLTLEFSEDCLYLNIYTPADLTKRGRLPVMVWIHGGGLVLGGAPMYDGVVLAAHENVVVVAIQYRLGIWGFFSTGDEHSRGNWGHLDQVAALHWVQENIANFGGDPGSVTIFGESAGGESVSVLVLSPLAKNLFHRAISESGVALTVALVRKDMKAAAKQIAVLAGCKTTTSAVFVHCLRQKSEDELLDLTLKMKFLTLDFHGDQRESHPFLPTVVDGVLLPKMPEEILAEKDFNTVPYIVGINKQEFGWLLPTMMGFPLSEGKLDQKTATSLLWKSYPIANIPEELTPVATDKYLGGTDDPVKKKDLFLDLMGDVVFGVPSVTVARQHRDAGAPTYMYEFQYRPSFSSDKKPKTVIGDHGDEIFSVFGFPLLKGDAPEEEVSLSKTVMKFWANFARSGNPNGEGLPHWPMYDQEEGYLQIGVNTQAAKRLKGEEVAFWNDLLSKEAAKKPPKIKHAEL
# experimentalProtocol: Prodrug release assessed as pig liver esterase-mediated H2S and fluorescent coumarin release by measuring half life of drug at 500 uM by HPLC analysis
# Type: ADME
attributeMeasured: t1/2

I'd like to know its t1/2. The compound in question is CCN(CC)c1ccc2c(CN(C)O)cc(=S)oc2c1 > 120 h

# input compound: CCN(CC)c1ccc2c(C)cc(=S)oc2c1 ; wanted: its t1/2 > 120 h

Query: t1/2; subject: Cc1cc(=S)oc2cc(N(C)C)ccc12 > 120 h

Given the entry Cc1cc(=S)oc2cc3cc(O)ccc3cc12 , report its measured t1/2. > 120 h

Item under review: Nc1ccc2c(C(F)(F)F)cc(=S)oc2c1 . Reported t1/2? > 120 h

Entry COc1ccc2cc3c(C)cc(=S)oc3cc2c1 : reported t1/2 = ? > 120 h
